Hi there, I'd appreciate the recorded protein stability index for every entry that follows.
B1: ZNF449 (parent)
chain: EPHKCPECGKRFLRSSDLYRHQRL

- Variants of: B1
- assay overview: protein stability index of a GFP-peptide fusion (GPS, HEK-293T) (PSI 1-6); higher = more stable;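 note: lentivirally expressed fusions sorted by FACS into six bins by GFP to DsRed ratio, PSI derived from sequencing read proportions per bin multiplied by bin number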
- details: c terminus: a fixed tail appended
One number for each entry.

Known results for variants:
K4P : 3.42
L24I : 3.63
G9P : 2.82

Each variant below has a reported value. Please supply its protein stability index.
1. E7S
2. L18I
3. E1Y
4. L13V
5. D17Y
6. L13R
7. R23V
8. R20M

Result ::
1: 4.11; 2: 2.52; 3: 3.3; 4: 4.32; 5: 2.21; 6: 3.99; 7: 3.16; 8: 3.83
